# credit: ChEMBL document CHEMBL4020822

- ASSAY OVERVIEW: physchem
- CONDITION PARAMETERS: octanol/water phosphate buffer, pH 7.4
logD less than 2 is 1.0; logD greater than or equal to 2 is 0.0.

hey, is logD for CN(c1ncnc2[nH]ccc12)[C@H]1C[C@@H](NS(=O)(=O)NC2CC2)C1 lower than 2 or not? 1.0

Would you kindly verify if logD of CN(c1ncnc2[nH]ccc12)[C@H]1C[C@@H](NS(=O)(=O)NCCCC#N)C1 is strictly less than 2? 1.0

Identify whether the compound CCCCS(=O)(=O)C[C@H]1C[C@@H](N(C)c2ncnc3[nH]ccc23)C1 records logD below 2. 0.0

Here's an entry: CN(c1ncnc2[nH]ccc12)[C@H]1C[C@@H](NS(C)(=O)=O)C1 . Is its logD below 2? 1.0

Is 2 strictly greater than the compound's reported logD? compound: CN(c1ncnc2[nH]ccc12)[C@H]1C[C@@H](NS(=O)(=O)N2CCCCC2)C1 0.0

hey, is logD for CCS(=O)(=O)N[C@H]1C[C@@H](N(C)c2ncnc3[nH]ccc23)C1 lower than 2 or not? 1.0

logD under 2? Item: CCCS(=O)(=O)N[C@H]1C[C@@H](N(C)c2ncnc3[nH]ccc23)C1 [ABROCITINIB] 1.0

In plain terms, does N#CC[C@H](C1CCCC1)n1cc(-c2ncnc3[nH]ccc23)cn1 [RUXOLITINIB] come in under 2 for logD? 0.0
